# experiment summary: Solubility screen of 5-MeO-DMT in solvents at room temperature and reflux
# condition label: ethanol, organic solvent or mixture, thermodynamic from solid, 5-MeO-DMT Solubility Ambient, solvent Ethanol; ambient (room temperature)

chem smiles	solubility (mg/mL)
COc1ccc2[nH]cc(CCN(C)C)c2c1	340

* * *

# experiment summary: Solubility screen of 5-MeO-DMT in solvents at room temperature and reflux
# condition label: acetone, organic solvent or mixture, thermodynamic from solid, 5-MeO-DMT Solubility Ambient, solvent Acetone; ambient (room temperature)

chem smiles	solubility, mg/mL
COc1ccc2[nH]cc(CCN(C)C)c2c1	530

* * *

# experiment summary: Solubility screen of 5-MeO-DMT in solvents at room temperature and reflux
# condition label: heptanes, organic solvent or mixture, thermodynamic from solid, 5-MeO-DMT Solubility Reflux, solvent Heptanes; reflux
property name: solubility

chem smiles	test value
COc1ccc2[nH]cc(CCN(C)C)c2c1	< 50 mg/mL
